Entry source: ChEMBL document CHEMBL4513135

system: Staphylococcus aureus; conditions: Concentration 32 ug.mL-1; ASSAY_TEST Inhibition of Bacterial Growth; detection method Absorption (OD600); MEDIA CAMHB; plate type 384well; NBS; CORNING #3640; time 18 hr
Description: Antibacterial activity against Staphylococcus aureus MRSA ATCC 43300 (CO-ADD:GP_020); MIC in CAMBH media, using NBS plates, by OD(600)
Results with a measured potency or affinity are listed apart.
endpoint_name: Inhibition (%)
Write down the numeric answer in % and omit the unit.

Req: Param item = CCOC(=O)c1cc2ccccc2[nH]1 ; retrieve measured Inhibition.
Resp: 8.39

Req: Param item = COc1ccc(C2c3c(ccc4ccccc34)OC(=NBr)C2(Br)C#N)cc1 (stereo unspecified) ; retrieve measured Inhibition.
Resp: 37.33

Req: Param item = Cc1ccc(CNNC(=O)c2cc3ccccc3n2C)cc1 ; retrieve measured Inhibition.
Resp: -9.87

Req: Param item = Cc1ccc(C=C2N=C(c3ccccc3)OC2=O)cc1 ; retrieve measured Inhibition.
Resp: 7.55

Req: Param item = COc1cc(C=NNC(=O)Cc2c[nH]c3ccccc23)ccc1O ; retrieve measured Inhibition.
Resp: 8.14

Req: Param item = COc1nc(Cl)c(C#N)c(-c2ccccc2)c1C#N ; retrieve measured Inhibition.
Resp: 35.41

Req: Param item = N#Cc1cc(Br)cc(Br)c1N ; retrieve measured Inhibition.
Resp: 3.71

Req: Param item = Cc1cnc2ccc(Br)cn12 ; retrieve measured Inhibition.
Resp: 2.9

Req: Param item = CC(=NNC(N)=O)c1c[nH]c2ccccc12 ; retrieve measured Inhibition.
Resp: 2.54

Req: Param item = Nc1c2c(nc3ccc([N+](=O)[O-])cc13)CCCC2 ; retrieve measured Inhibition.
Resp: 53.1

Req: Param item = N#Cc1cc(C#N)c(NCCCCC2CCN(Cc3ccccc3)CC2)nc1N ; retrieve measured Inhibition.
Resp: 36.38

Req: Param item = CC#CCN(Cc1ccccc1)c1nc(N)c(C#N)cc1C#N ; retrieve measured Inhibition.
Resp: 14.89

Req: Param item = CC#CCN.Cl ; retrieve measured Inhibition.
Resp: 31.78

Req: Param item = CCOC(=O)C1=C(C)OC(N)=C(C#N)C1c1ccc(F)cc1 (stereo unspecified) ; retrieve measured Inhibition.
Resp: 19.76

Req: Param item = Cc1ccc2nc(Cl)c(/C=N/N)cc2c1 ; retrieve measured Inhibition.
Resp: 28.8

Req: Param item = CCOC(=O)c1c[nH]c2ccc(OCc3ccccc3)cc12 ; retrieve measured Inhibition.
Resp: 5.22

Req: Param item = COc1ccc(C2c3c(ccc4ccccc34)OC(=N)C2(Br)C#N)cc1OC (stereo unspecified) ; retrieve measured Inhibition.
Resp: 9.13

Req: Param item = COc1ccc(CNNC(=O)c2cc3ccccc3[nH]2)cc1 ; retrieve measured Inhibition.
Resp: 2.37

Req: Param item = N#Cc1c(Cl)nc(N2CCCCC2)c(C#N)c1-c1ccccc1 ; retrieve measured Inhibition.
Resp: -12.16

Req: Param item = CN1C/C(=C\Cl)n2c1c(C#N)cc(C#N)c2=O ; retrieve measured Inhibition.
Resp: 23.22

Req: Param item = CSC1=NC(=Cc2ccccc2)C(=O)N1C ; retrieve measured Inhibition.
Resp: 5.89

Req: Param item = Nc1c2c(nc3c1c1ccccc1n3Cc1ccccc1)CCCC2 ; retrieve measured Inhibition.
Resp: 17.35

Req: Param item = CCOC(=O)C1=C(C)OC(N)=C(C#N)C1c1ccc(OC)cc1 (stereo unspecified) ; retrieve measured Inhibition.
Resp: 9.52

Req: Param item = CN1C/C(=C\Cl)n2c1c(C#N)c(-c1ccccc1)c(C#N)c2=O ; retrieve measured Inhibition.
Resp: 14.24

Req: Param item = Cl.Nc1c2c(nc3c1C(c1c(Cl)cccc1Cl)c1ccc4ccccc4c1O3)CCCC2 (stereo unspecified) ; retrieve measured Inhibition.
Resp: -3.18

Req: Param item = Nc1n[nH]c2c1C(c1ccccc1)CC(=O)N2 (stereo unspecified) ; retrieve measured Inhibition.
Resp: 40.09
